Test: Selectivity index, ratio of CC50 for African green monkey Vero E6 cells to IC50 for SARS-CoV-2 infected in African green monkey Vero E6 cells
Type: toxicity
Conditions: read-out: Selectivity Index
Measured Quantity: selectivity ratio
Could you keep your reply to the number by itself?

1) NC(=O)c1nc(F)cnc1O :: 3.8

Lab note: next molecule to report on.
Just so you know, measured selectivity ratio for CCN(CCO)CCCC(C)Nc1ccnc2cc(Cl)ccc12 (configuration not stated) [HYDROXYCHLOROQUINE] came out at 9.7

---

Test: Cytotoxicity against African green monkey Vero E6 cells assessed as reduction in cell viability
Assay type: toxicity, cell-based, Vero C1008
Settings: chlorocebus sabaeus
Measured Quantity: CC50 (mM)
# number only, unit mM dropped from output

1) CCN(CCO)CCCC(C)Nc1ccnc2cc(Cl)ccc12 (configuration not stated) [HYDROXYCHLOROQUINE] :: 0.356

Lab note: next compound to report on.
Just so you know, measured CC50 for NC(=O)c1nc(F)cnc1O came out at 5.26
